# target_system: CHUK (human)
# protocol_description: KINOMEscan competition binding
# test_settings: compound 10.0 µM
result_type: kinase still bound, per cent of control
Units required after the number.

Example results:
smiles_str	result
O=C1NC(=O)/C(=C/c2c[nH]c(=O)c(-c3ccc(N4CCNCC4)nc3)c2)S1	53%
COc1cc(N2CCN(C)CC2)ccc1Nc1ncc2c(n1)N(C)c1sccc1C(=O)N2C	46%
N=C1NC(=O)/C(=C/c2ccc(-c3ccccc3O)o2)S1	9.5%
COc1cc(N2CCN(C)CC2)ccc1Nc1ncc2c(n1)N(C)c1ccccc1N(C)C2=O	60%
N=C1NC(=O)/C(=C/c2ccc(-c3ccc(C(N)=O)cc3O)o2)S1	16%
CN1C(=O)c2ccccc2N(C)c2nc(NS(=O)(=O)c3ccc(N)cc3)ncc21	95%

Entry NS(=O)(=O)c1ccc(-c2ccc(/C=C3\NC(=S)NC3=O)o2)cc1 needs its kinase still bound, per cent of control filled in; supply it.
32%

Entry COc1cc(N2CCC(O)CC2)ccc1Nc1ncc2c(n1)N1CCc3cccc(c31)C(=O)N2C needs its kinase still bound, per cent of control filled in; supply it.
79%

Entry COc1cc(N2CCN(C)CC2)ccc1Nc1ncc2c(n1)Nc1ccccc1NC2=O needs its kinase still bound, per cent of control filled in; supply it.
67%

Entry O=C1NC(=S)S/C1=C\c1ccc(-c2cncc3ccccc23)o1 needs its kinase still bound, per cent of control filled in; supply it.
8.4%

* * *

# target_system: ULK2 (human)
# protocol_description: KINOMEscan competition binding
# test_settings: compound 10.0 µM
Recorded kinase still bound, per cent of control, one value per entry.
Give just the numeric value; % need not be written.

Example results:
compound	kinase still bound, per cent of control (%)
CSC1=NC(=O)/C(=C/c2c[nH]c(=O)c(-c3ccc(NS(C)(=O)=O)cc3)c2)S1	13
COc1cc(N2CCN(C)CC2)ccc1Nc1ncc2c(n1)Nc1ccccc1NC2=O	75
COc1cc(N2CCN(C)CC2)ccc1Nc1ncc2c(n1)N(C(C)C)c1ccccc1C(=O)N2	27
CN1CCN(c2ccc(C(=O)Nc3ncc4c(n3)N(C)c3ccccc3C(=O)N4C)cc2)CC1	89
CN1C(=O)c2ccccc2N(C)c2nc(NS(=O)(=O)c3ccc(N)cc3)ncc21	89

Next up:
Entry CS(=O)(=O)Nc1ccc(-c2cncc(/C=C3\SC(=N)NC3=O)c2)cc1 needs its kinase still bound, per cent of control filled in; supply it.
29

* * *

# target_system: ACVR2B (human)
# protocol_description: KINOMEscan competition binding
# test_settings: compound 10.0 µM
Category | rule: reported kinase still bound, per cent of control within range, see low class = under 20%, middle class = from 20% up to 30%, high class = 30% and over

Here's what some known entries look like.
smiles_str	classification
Nc1cccc(-c2cc(/C=C3\SC(=O)NC3=O)c[nH]c2=O)c1	low class
N=C1NC(=O)/C(=C/c2ccc(-c3ccc(F)cc3O)o2)S1	low class
CS(=O)(=O)Nc1ccc(-c2cc(/C=C3\SC(=N)NC3=O)c[nH]c2=O)cc1	low class
COc1cc(N2CCN(C)CC2)ccc1Nc1ncc2c(n1)Nc1ccccc1NC2=O	high class
Cc1cn(-c2cc(NC(=O)c3cccc4cc(-c5ccc(/C=C6\SC(=N)NC6=O)o5)ccc34)cc(C(F)(F)F)c2)cn1	middle class
O=C1NC(=O)/C(=C/c2c[nH]c(=O)c(-c3ccc(N4CCNCC4)nc3)c2)S1	high class
COc1cc(N2CCC(O)CC2)ccc1Nc1ncc2c(n1)N1CCc3cccc(c31)C(=O)N2C	high class
CN1C(=O)c2ccccc2N(C)c2nc(NS(=O)(=O)c3ccc(N)cc3)ncc21	high class

Please let me know in which category the item N=C1NC(=O)/C(=C/c2ccc(-c3ccc(C(N)=O)cc3O)o2)S1 belongs.
middle class

Please let me know in which category the item N=C1NC(=O)/C(=C/c2ccc(-c3ccc4c(C(=O)Nc5ccc(N6CCNCC6)cc5)cccc4c3)o2)S1 belongs.
high class

Please let me know in which category the item N=C1NC(=O)/C(=C/c2c[nH]c(=O)c(-c3ccc(S(N)(=O)=O)cc3)c2)S1 belongs.
low class

* * *

# target_system: JAK1 JH1 catalytic (human)
# protocol_description: KINOMEscan competition binding
# test_settings: compound 10.0 µM
Param label: returns TRUE when kinase still bound, per cent of control < 50%, returns FALSE otherwise, including exact equality.

Here's what some known entries look like.
smiles_str	classification
CN1C(=O)c2ccccc2N(C)c2nc(NS(=O)(=O)c3ccc(N)cc3)ncc21	FALSE
CN1CCN(c2ccc(C(=O)Nc3ncc4c(n3)N(C)c3ccccc3C(=O)N4C)cc2)CC1	FALSE

Is 50% strictly greater than the compound's reported kinase still bound, per cent of control? compound: O=C1NC(=O)/C(=C/c2c[nH]c(=O)c(-c3ccc(N4CCNCC4)nc3)c2)S1
TRUE

* * *

# target_system: KIT (human) (UniProt P10721)
# Sequence (P10721 whole entry, looked up): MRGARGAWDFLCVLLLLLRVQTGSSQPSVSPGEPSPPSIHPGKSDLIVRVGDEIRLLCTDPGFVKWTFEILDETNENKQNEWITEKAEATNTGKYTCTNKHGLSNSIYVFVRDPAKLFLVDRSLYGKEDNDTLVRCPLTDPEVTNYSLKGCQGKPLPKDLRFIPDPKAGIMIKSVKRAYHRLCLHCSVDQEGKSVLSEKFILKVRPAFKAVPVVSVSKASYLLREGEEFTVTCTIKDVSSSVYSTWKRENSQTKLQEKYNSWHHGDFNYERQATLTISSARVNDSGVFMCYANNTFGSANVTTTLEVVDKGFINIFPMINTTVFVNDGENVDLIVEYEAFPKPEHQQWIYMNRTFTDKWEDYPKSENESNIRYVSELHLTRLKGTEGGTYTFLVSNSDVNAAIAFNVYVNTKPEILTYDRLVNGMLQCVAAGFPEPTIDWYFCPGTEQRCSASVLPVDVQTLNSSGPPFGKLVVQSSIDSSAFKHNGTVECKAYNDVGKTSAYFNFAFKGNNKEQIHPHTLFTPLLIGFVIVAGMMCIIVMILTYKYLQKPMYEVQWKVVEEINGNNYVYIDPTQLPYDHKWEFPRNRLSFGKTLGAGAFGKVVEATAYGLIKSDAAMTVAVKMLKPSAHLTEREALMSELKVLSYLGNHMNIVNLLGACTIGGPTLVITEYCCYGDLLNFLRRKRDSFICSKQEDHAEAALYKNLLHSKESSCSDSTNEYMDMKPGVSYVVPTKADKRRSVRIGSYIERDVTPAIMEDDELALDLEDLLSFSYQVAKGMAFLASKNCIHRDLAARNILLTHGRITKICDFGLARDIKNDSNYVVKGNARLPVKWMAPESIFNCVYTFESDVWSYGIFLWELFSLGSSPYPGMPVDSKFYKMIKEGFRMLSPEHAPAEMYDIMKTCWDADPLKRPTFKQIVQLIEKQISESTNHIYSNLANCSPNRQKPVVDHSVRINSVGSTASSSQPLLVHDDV
# protocol_description: KINOMEscan competition binding
# test_settings: compound 10.0 µM
Param label: returns rule met when kinase still bound, per cent of control < 50%, returns rule not met otherwise, including exact equality.

Here's what some known entries look like.
smiles_str	classification
COc1cc(N2CCN(C)CC2)ccc1Nc1ncc2c(n1)N(C)c1ccccc1N(C)C2=O	rule not met
NS(=O)(=O)c1ccc(-c2ccc(/C=C3/C(=O)NN(c4ccccc4)C3=O)o2)cc1	rule met
COc1cc(N2CCN(C)CC2)ccc1Nc1ncc2c(n1)N1CCC[C@H]1CC(=O)N2	rule met
CN1CCN(c2ccc(C(=O)Nc3ncc4c(n3)N(C)c3ccccc3C(=O)N4C)cc2)CC1	rule not met
O=C1NC(=O)/C(=C/c2c[nH]c(=O)c(-c3ccc(N4CCNCC4)nc3)c2)S1	rule not met
CN1C(=O)c2ccccc2N(C)c2nc(NS(=O)(=O)c3ccc(N)cc3)ncc21	rule not met
COc1cc(N2CCN(C)CC2)ccc1Nc1ncc2c(n1)N(C)c1sccc1C(=O)N2C	rule not met
COc1cc(N2CCN(C)CC2)ccc1Nc1ncc2c(n1)N(C)c1ccccc1C(=O)N2	rule met
CCN1C(=O)CCN(C2CCCC2)c2nc(Nc3ccc(N4CCC(O)CC4)cn3)ncc21	rule met
O=C1NC(=S)S/C1=C\c1ccc(-c2cncc3ccccc23)o1	rule met

Is 50% strictly greater than the compound's reported kinase still bound, per cent of control? compound: COc1cc(N2CCN(C)CC2)ccc1Nc1ncc2c(n1)Nc1ccccc1NC2=O
rule met

Is 50% strictly greater than the compound's reported kinase still bound, per cent of control? compound: N=C1NC(=O)/C(=C/c2ccc(-c3cncc4ccccc34)o2)S1
rule met

Is 50% strictly greater than the compound's reported kinase still bound, per cent of control? compound: CN1C(=O)c2ccccc2N(C)c2nc(Nc3ccc(N4CCC(O)CC4)cn3)ncc21
rule met

* * *

Recorded kinase still bound, per cent of control, one value per entry.
# Test system: ABL1 (human), P00519 [H396P]
# protocol_description: KINOMEscan competition binding
# test_settings: compound 10.0 µM
Give just the numeric value; % need not be written.

Example results:
smiles_str	result_type	unit_descriptor	result_number
COc1cc(N2CCN(C)CC2)ccc1Nc1ncc2c(n1)N(C)c1sccc1C(=O)N2C	kinase still bound, per cent of control	%	82
COc1cc(N2CCN(C)CC2)ccc1Nc1ncc2c(n1)Nc1ccccc1NC2=O	kinase still bound, per cent of control	%	21
O=C1NC(=O)/C(=C/c2c[nH]c(=O)c(-c3ccc(N4CCNCC4)nc3)c2)S1	kinase still bound, per cent of control	%	96

Entry COc1cc(N2CCC(O)CC2)ccc1Nc1ncc2c(n1)N1CCc3cccc(c31)C(=O)N2C needs its kinase still bound, per cent of control filled in; supply it.
100

Entry CN1C(=O)c2ccccc2N(C)c2nc(NS(=O)(=O)c3ccc(N)cc3)ncc21 needs its kinase still bound, per cent of control filled in; supply it.
100

Entry CN1CCN(c2ccc(C(=O)Nc3ncc4c(n3)N(C)c3ccccc3C(=O)N4C)cc2)CC1 needs its kinase still bound, per cent of control filled in; supply it.
88

Entry CN1C(=O)c2ccccc2N(C)c2nc(Nc3ccc(N4CCC(O)CC4)cc3)ncc21 needs its kinase still bound, per cent of control filled in; supply it.
0.15

Entry COc1cc(N2CCN(C)CC2)ccc1Nc1ncc2c(n1)N(C)c1ccccc1N(C)C2=O needs its kinase still bound, per cent of control filled in; supply it.
100

* * *

# target_system: STK33 (human)
# protocol_description: KINOMEscan competition binding
# test_settings: compound 10.0 µM
Param label: returns y when kinase still bound, per cent of control < 5%, returns n otherwise, including exact equality.

Here's what some known entries look like.
molecule	target_system	classification
Nc1cccc(-c2cc(/C=C3\SC(=O)NC3=O)c[nH]c2=O)c1	STK33 (human)	n
COc1cc(C(=O)NC2CCN(C)CC2)ccc1Nc1ncc2c(n1)N(C1CCCC1)CCC(=O)N2C	STK33 (human)	n

Is 5% strictly greater than the molecule's reported kinase still bound, per cent of control? molecule: COc1cc(N2CCN(C)CC2)ccc1Nc1ncc2c(n1)N(C)c1sccc1C(=O)N2C
y

Is 5% strictly greater than the molecule's reported kinase still bound, per cent of control? molecule: COc1cc(N2CCN(C)CC2)ccc1Nc1ncc2c(n1)N1CCC[C@H]1CC(=O)N2
n

Is 5% strictly greater than the molecule's reported kinase still bound, per cent of control? molecule: COc1cc(C(=O)NC2CCN(C)CC2)ccc1Nc1ncc2c(n1)N(C1CCCC1)C(C)CC(=O)N2C (centres undefined)
y
